Hey, just so you know, these numbers are from the RNAGym collection of RNA variant scans (doi:10.1073/pnas.2313332121).

B1: TPR t1 (parent)
chain: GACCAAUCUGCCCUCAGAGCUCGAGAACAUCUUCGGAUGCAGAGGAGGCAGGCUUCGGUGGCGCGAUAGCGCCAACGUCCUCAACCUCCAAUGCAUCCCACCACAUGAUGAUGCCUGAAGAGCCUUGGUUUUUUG

# Variants of: B1
# PROTOCOL DETAILS: polymerase ribozyme fitness, log enrichment relative to wild type (log ratio); higher = more active; in vitro selection for triplet polymerase activity
# polymerase ribozyme fitness (log ratio) listing for each entry below
MEASUREMENT NAME: polymerase ribozyme fitness (log ratio)

residue_change="C97U U106G" measurement_name="polymerase ribozyme fitness (log ratio)" reported=-2.7
residue_change="U112A U130C" measurement_name="polymerase ribozyme fitness (log ratio)" reported=1.38
residue_change="G44A U55C U81A" measurement_name="polymerase ribozyme fitness (log ratio)" reported=-2.83
residue_change="A18U G39U C73U C85G" measurement_name="polymerase ribozyme fitness (log ratio)" reported=-4.26
residue_change="U14A C31U U32G C53G C80A C104U G120C G135U" measurement_name="polymerase ribozyme fitness (log ratio)" reported=-7.94
residue_change="A2C C4A G120A" measurement_name="polymerase ribozyme fitness (log ratio)" reported=0.58
residue_change="C31G G69U A111C U112A G117A" measurement_name="polymerase ribozyme fitness (log ratio)" reported=-6.69
residue_change="C13A C53G U54A G117C" measurement_name="polymerase ribozyme fitness (log ratio)" reported=-4.98
residue_change="U112A G117A G120U C124G" measurement_name="polymerase ribozyme fitness (log ratio)" reported=-1.37
residue_change=C20U measurement_name="polymerase ribozyme fitness (log ratio)" reported=-1.26
residue_change="G69A G128C" measurement_name="polymerase ribozyme fitness (log ratio)" reported=-5.29
